EXPERIMENT_NOTES: Visual (tube-tapping) assay of gel-forming capability and solubility
Type: physicochemical
Design: key: Y: can form a liquid gel; N: lacks the ability to efficiently form a liquid gel
TEST_PARAMETERS: visual inspection of 11% peptide solutions, tube-tapping, 20 min after mixing
Non-standard residues stand in square brackets, D forms with d. Residues, ends and D or L forms follow the SMILES beside them. *: point of attachment. 2Nal = N[C@@H](Cc1ccc2ccccc2c1)C(=O)O; Met(O2) = CS(=O)(=O)CC[C@H](N)C(=O)O; Palmitoyl = CCCCCCCCCCCCCCCC(=O)*; Hyp = O=C(O)[C@@H]1C[C@@H](O)CN1; Orn = NCCC[C@H](N)C(=O)O; Dab = NCC[C@H](N)C(=O)O; Abu = CC[C@H](N)C(=O)O; Ahx = NCCCCCC(=O)O
ASSAY_READOUT: Gel-forming ability

Use these answered entries as a reference point.
>>> result_value("CCCCCCCCCCCCCCCC(=O)N[C@@H](CCCCN)C(=O)N[C@H](C(=O)N[C@@H](CCC(N)=O)C(=O)N[C@@H](CCCCN)C(=O)N[C@@H](CCS(C)(=O)=O)C(=O)N[C@@H](CO)C(=O)N[C@@H](C)C(=O)N1CCC[C@H]1C(=O)N[C@H](C(=O)N[C@@H](CC(=O)O)C(=O)N1CCC[C@H]1C(=O)N[C@@H](CO)C(=O)N[C@@H](CO)C(=O)N1CCC[C@H]1C(=O)N[C@@H](Cc1c[nH]cn1)C(=O)N[C@@H](CO)C(=O)N[C@@H](Cc1ccc(O)cc1)C(N)=O)C(C)C)C(C)C [ADE651J] (Palmitoyl-KVQK[Met(O2)]SAPVDPSSPHSY-NH2)")
"Y"
>>> result_value("CCCCCCCCCCCCCCCC(=O)N[C@@H](CCCCN)C(=O)N[C@H](C(=O)N[C@@H](CCC(N)=O)C(=O)N[C@@H](CCCCN)C(=O)N[C@@H](CCCN)C(=O)N[C@@H](CO)C(=O)N[C@@H](C)C(=O)N1CCC[C@H]1C(=O)N[C@H](C(=O)N[C@@H](CC(=O)O)C(=O)N1CCC[C@H]1C(=O)N[C@@H](CO)C(=O)N[C@@H](CO)C(=O)N1CCC[C@H]1C(=O)N[C@@H](Cc1c[nH]cn1)C(=O)N[C@@H](CO)C(=O)N[C@@H](Cc1ccc(O)cc1)C(N)=O)C(C)C)C(C)C [ADE651G] (Palmitoyl-KVQK[Orn]SAPVDPSSPHSY-NH2)")
"N"
>>> result_value("CCCCCCCCCCCCCCCC(=O)N[C@@H](CCCCN)C(=O)N[C@H](C(=O)N[C@@H](CCC(N)=O)C(=O)N[C@@H](CCCCN)C(=O)NCCCCCC(=O)N[C@@H](CO)C(=O)N[C@@H](C)C(=O)N1CCC[C@H]1C(=O)N[C@H](C(=O)N[C@@H](CC(=O)O)C(=O)N1CCC[C@H]1C(=O)N[C@@H](CO)C(=O)N[C@@H](CO)C(=O)N1CCC[C@H]1C(=O)N[C@@H](Cc1c[nH]cn1)C(=O)N[C@@H](CO)C(=O)N[C@@H](Cc1ccc(O)cc1)C(N)=O)C(C)C)C(C)C [ADE651B] (Palmitoyl-KVQK[Ahx]SAPVDPSSPHSY-NH2)")
"N"
>>> result_value("CCCCCCCCCCCCCCCC(=O)N[C@@H](CCCCN)C(=O)N[C@H](C(=O)N[C@@H](CCC(N)=O)C(=O)N[C@@H](CCCCN)C(=O)N[C@@H](Cc1ccc2ccccc2c1)C(=O)N[C@@H](CO)C(=O)N[C@@H](C)C(=O)N1CCC[C@H]1C(=O)N[C@H](C(=O)N[C@@H](CC(=O)O)C(=O)N1CCC[C@H]1C(=O)N[C@@H](CO)C(=O)N[C@@H](CO)C(=O)N1CCC[C@H]1C(=O)N[C@@H](Cc1c[nH]cn1)C(=O)N[C@@H](CO)C(=O)N[C@@H](Cc1ccc(O)cc1)C(N)=O)C(C)C)C(C)C [ADE651H] (Palmitoyl-KVQK[2Nal]SAPVDPSSPHSY-NH2)")
"Y"
>>> result_value("CCCCCCCCCCCCCCCC(=O)N[C@@H](CCCCN)C(=O)N[C@H](C(=O)N[C@@H](CCC(N)=O)C(=O)N[C@@H](CCCCN)C(=O)N[C@@H](CCCC)C(=O)N[C@@H](CO)C(=O)N[C@@H](C)C(=O)N1CCC[C@H]1C(=O)N[C@H](C(=O)N[C@@H](CC(=O)O)C(=O)N1CCC[C@H]1C(=O)N[C@@H](CO)C(=O)N[C@@H](CO)C(=O)N1CCC[C@H]1C(=O)N[C@@H](Cc1c[nH]cn1)C(=O)N[C@@H](CO)C(=O)N[C@@H](Cc1ccc(O)cc1)C(N)=O)C(C)C)C(C)C [ADE651F]")
"N"

IN: Any idea what its Gel-forming ability is? The compound is CCCCCCCCCCCCCCCC(=O)N[C@@H](CCCCN)C(=O)N[C@H](C(=O)N[C@@H](CCC(N)=O)C(=O)N[C@@H](CCCCN)C(=O)N1C[C@H](O)C[C@H]1C(=O)N[C@@H](CO)C(=O)N[C@@H](C)C(=O)N1CCC[C@H]1C(=O)N[C@H](C(=O)N[C@@H](CC(=O)O)C(=O)N1CCC[C@H]1C(=O)N[C@@H](CO)C(=O)N[C@@H](CO)C(=O)N1CCC[C@H]1C(=O)N[C@@H](Cc1c[nH]cn1)C(=O)N[C@@H](CO)C(=O)N[C@@H](Cc1ccc(O)cc1)C(N)=O)C(C)C)C(C)C [ADE651E] (Palmitoyl-KVQK[Hyp]SAPVDPSSPHSY-NH2)
OUT: N

IN: Cool, now CCCCCCCCCCCCCCCC(=O)N[C@@H](CCCCN)C(=O)N[C@H](C(=O)N[C@@H](CCC(N)=O)C(=O)N[C@@H](CCCCN)C(=O)N[C@@H](CCN)C(=O)N[C@@H](CO)C(=O)N[C@@H](C)C(=O)N1CCC[C@H]1C(=O)N[C@H](C(=O)N[C@@H](CC(=O)O)C(=O)N1CCC[C@H]1C(=O)N[C@@H](CO)C(=O)N[C@@H](CO)C(=O)N1CCC[C@H]1C(=O)N[C@@H](Cc1c[nH]cn1)C(=O)N[C@@H](CO)C(=O)N[C@@H](Cc1ccc(O)cc1)C(N)=O)C(C)C)C(C)C [ADE651K] (Palmitoyl-KVQK[Dab]SAPVDPSSPHSY-NH2)
OUT: N

IN: Cool, now CCCCCCCCCCCCCCCC(=O)N[C@@H](CCCCN)C(=O)N[C@H](C(=O)N[C@@H](CCC(N)=O)C(=O)N[C@@H](CCCCN)C(=O)N[C@@H](CC)C(=O)N[C@@H](CO)C(=O)N[C@@H](C)C(=O)N1CCC[C@H]1C(=O)N[C@H](C(=O)N[C@@H](CC(=O)O)C(=O)N1CCC[C@H]1C(=O)N[C@@H](CO)C(=O)N[C@@H](CO)C(=O)N1CCC[C@H]1C(=O)N[C@@H](Cc1c[nH]cn1)C(=O)N[C@@H](CO)C(=O)N[C@@H](Cc1ccc(O)cc1)C(N)=O)C(C)C)C(C)C [ADE651I] (Palmitoyl-KVQK[Abu]SAPVDPSSPHSY-NH2)
OUT: N

====

EXPERIMENTAL_TARGET: CLR/RAMP1 receptor (Homo sapiens, UniProt O60894+Q16602)
Construct: host or cells: CHO-K1 (cAMP Hunter cell line)
Sequence (Q16602 23-461): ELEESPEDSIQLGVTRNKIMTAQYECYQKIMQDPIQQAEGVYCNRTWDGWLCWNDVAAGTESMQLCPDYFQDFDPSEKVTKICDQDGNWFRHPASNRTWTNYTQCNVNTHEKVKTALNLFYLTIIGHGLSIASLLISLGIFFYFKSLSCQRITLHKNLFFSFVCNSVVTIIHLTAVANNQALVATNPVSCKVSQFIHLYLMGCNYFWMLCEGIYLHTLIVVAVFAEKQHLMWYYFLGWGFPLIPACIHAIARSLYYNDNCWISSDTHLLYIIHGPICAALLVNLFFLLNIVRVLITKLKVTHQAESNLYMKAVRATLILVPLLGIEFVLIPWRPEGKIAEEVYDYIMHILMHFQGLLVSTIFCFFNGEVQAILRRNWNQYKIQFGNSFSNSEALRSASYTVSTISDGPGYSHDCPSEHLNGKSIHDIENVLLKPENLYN
Sequence (O60894 27-148): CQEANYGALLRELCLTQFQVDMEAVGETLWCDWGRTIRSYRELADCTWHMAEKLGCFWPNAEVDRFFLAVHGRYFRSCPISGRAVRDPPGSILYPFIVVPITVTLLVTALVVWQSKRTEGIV
EXPERIMENT_NOTES: HitHunter cAMP XS+ CALCRL-RAMP1 cAMP assay, antagonist mode
Format: cell-based
TEST_PARAMETERS: antagonist mode, β-CGRP at EC80; 10-point curve, duplicate
Non-standard residues stand in square brackets, D forms with d. Residues, ends and D or L forms follow the SMILES beside them. *: point of attachment. 2Nal = N[C@@H](Cc1ccc2ccccc2c1)C(=O)O; Met(O2) = CS(=O)(=O)CC[C@H](N)C(=O)O; Palmitoyl = CCCCCCCCCCCCCCCC(=O)*; Nva = CCC[C@H](N)C(=O)O
Here, each record is paired with measured Maximum response data.

Use these answered entries as a reference point.
>>> result_value("CCCCCCCCCCCCCCCC(=O)N[C@@H](CCCCN)C(=O)N[C@H](C(=O)N[C@@H](CCC(N)=O)C(=O)N[C@@H](CCCCN)C(=O)N[C@@H](CCC)C(=O)N[C@@H](CO)C(=O)N[C@@H](C)C(=O)N1CCC[C@H]1C(=O)N[C@H](C(=O)N[C@@H](CC(=O)O)C(=O)N1CCC[C@H]1C(=O)N[C@@H](CO)C(=O)N[C@@H](CO)C(=O)N1CCC[C@H]1C(=O)N[C@@H](Cc1c[nH]cn1)C(=O)N[C@@H](CO)C(=O)N[C@@H](Cc1ccc(O)cc1)C(N)=O)C(C)C)C(C)C [ADE651C] (Palmitoyl-KVQK[Nva]SAPVDPSSPHSY-NH2)")
"101 % of positive control"
>>> result_value("CCCCCCCCCCCCCCCC(=O)N[C@@H](CCCCN)C(=O)N[C@H](C(=O)N[C@@H](CCC(N)=O)C(=O)N[C@@H](CCCCN)C(=O)N[C@@H](CCS(C)(=O)=O)C(=O)N[C@@H](CO)C(=O)N[C@@H](C)C(=O)N1CCC[C@H]1C(=O)N[C@H](C(=O)N[C@@H](CC(=O)O)C(=O)N1CCC[C@H]1C(=O)N[C@@H](CO)C(=O)N[C@@H](CO)C(=O)N1CCC[C@H]1C(=O)N[C@@H](Cc1c[nH]cn1)C(=O)N[C@@H](CO)C(=O)N[C@@H](Cc1ccc(O)cc1)C(N)=O)C(C)C)C(C)C [ADE651J] (Palmitoyl-KVQK[Met(O2)]SAPVDPSSPHSY-NH2)")
"100.4 % of positive control"

IN: Any idea what its Maximum response is? The molecule is CCCCCCCCCCCCCCCC(=O)N[C@@H](CCCCN)C(=O)N[C@H](C(=O)N[C@@H](CCC(N)=O)C(=O)N[C@@H](CCCCN)C(=O)N[C@@H](Cc1ccc2ccccc2c1)C(=O)N[C@@H](CO)C(=O)N[C@@H](C)C(=O)N1CCC[C@H]1C(=O)N[C@H](C(=O)N[C@@H](CC(=O)O)C(=O)N1CCC[C@H]1C(=O)N[C@@H](CO)C(=O)N[C@@H](CO)C(=O)N1CCC[C@H]1C(=O)N[C@@H](Cc1c[nH]cn1)C(=O)N[C@@H](CO)C(=O)N[C@@H](Cc1ccc(O)cc1)C(N)=O)C(C)C)C(C)C [ADE651H] (Palmitoyl-KVQK[2Nal]SAPVDPSSPHSY-NH2)
OUT: 100.1 % of positive control
